Below is a list of entries, each paired with its recorded IL-17A/F-induced IL-6 production in HT-1080 cells, Emax value.
System Under Test: human IL-17A/F heterodimer (human, UniProt Q16552 24-155; Q96PD4 31-163, limits assumed, biotinylated with Sulfo-NHS-LC-Biotin in the AlphaScreen assays only)
Sequence (Q16552 24-155 limits assumed, chain 1 of 2): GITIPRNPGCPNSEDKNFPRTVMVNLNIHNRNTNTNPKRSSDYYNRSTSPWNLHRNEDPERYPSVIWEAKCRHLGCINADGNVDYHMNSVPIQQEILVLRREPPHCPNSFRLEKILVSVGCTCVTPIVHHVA
Sequence (Q96PD4 31-163 limits assumed, chain 2 of 2): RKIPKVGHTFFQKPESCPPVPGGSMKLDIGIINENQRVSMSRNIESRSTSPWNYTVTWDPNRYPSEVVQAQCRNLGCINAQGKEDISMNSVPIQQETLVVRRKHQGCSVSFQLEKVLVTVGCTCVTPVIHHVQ
Assay Summary: cell-based or functional assay
Quantity Kind: IL-17A/F-induced IL-6 production in HT-1080 cells, Emax

1) 09D10 (VHH, Class 2 Nanobody (anti-IL-17A and IL-17A/F); not shown: c-myc, His6 tag) VHH: EVQLVESGGGLVQAGGSLSLSCAASGSVFRIDVMRWHRQAPGKQREFLASIASGGTTNYADSVKGRFTISRDNAKNTVYLQMNSLKPEDTAVYYCGANAESGPYTYWGLGTQVTVSS	55%
2) 12A09 (VHH, Class 3 Nanobody (anti-IL-17F); not shown: c-myc, His6 tag) VHH: EVQLVESGGGLVQPGGSLRLSCAASGFTFSSYRMAWVRQAPGKGLEWVSSTSTGGEMTNYADSVKGRFTISRDNAKNTLHLQMNSLKPEDTALYYCAAGTSAGHWSTGGQGTQVTVSS	41.5%
3) 01D06 (VHH, Class 2 Nanobody (anti-IL-17A and IL-17A/F); not shown: c-myc, His6 tag) VHH: EVQLVESGGGLVQAGGSLRLSCAADGRTFSTYGMTWFRQVPGKEREFVAHIPRSTYSPYYANSVKGRFTIARDDAKSTVYLQMNSLKPEDTAVYYCAVFTGGTYYVPTAYDYWGQGTQVTVSS	79.5%
4) 09G10 (VHH, Class 2 Nanobody (anti-IL-17A and IL-17A/F); not shown: c-myc, His6 tag) VHH: EVQLVESGGGLVQAGGSLRLSCAASDSVFTAKAVGWYRQPPGLQREWVAIITSGGKTNYADSSVKGRFTVSVDKVKNTVTLQMNSLKPEDTAVYYCYAQWMGRDYWGQGTQVTVSS	108%
5) 16A04 (VHH, Class 3 Nanobody (anti-IL-17F); also called IL17MS16A04; not shown: c-myc, His6 tag) VHH: EVQLVESGGGLVQAGGSLRLSCAASGRTFSSYVVGWFRQAPGKEREFIGAISGSGDSIYYAVSEKDRFTISRDNGKNTLYLQMSSLKAEDTAVYYCTADQEFGYLRFGRSEYWGQGTQVTVSS	95%
6) 04A02 (VHH, Class 2 Nanobody (anti-IL-17A and IL-17A/F); not shown: c-myc, His6 tag) VHH: EVQLVESGGGLVQPGGSLRLSCAASRNINIINYMAWYRQAPGNQRELVAAMTSDATTEYADSVKGRFTISRDIPENTVYLQMNSLKPEDTAVYYCNAKGIWDYLGRRDFGDYWGQGTQVTVSS	67.6%
7) 10A04 (VHH, Class 4 Nanobody (cross-reactive: anti-IL-17A, IL-17F and IL-17A/F); not shown: c-myc, His6 tag) VHH: EVQLVESGGGLVQPGGSLRLSCAASGFTFSSYWMYWVRQAPGKGLEWISALAPGGGNRYYAESVNGRFTISRDNAKNSLYLQMNSLKSEDTAVYYCAKDHNVGYRTGEYDYGGQGTQVTVSS	79.5%
8) 17C01 (VHH, Class 4 Nanobody (cross-reactive: anti-IL-17A, IL-17F and IL-17A/F); not shown: c-myc, His6 tag) VHH: EVQLVESGGRLVQAGGSLRLPCAASGRTFTSYPMGWFRQAPGKEREFVAAISMSGDDAAYADFVRGRFTISRDDARNTVYLHMTSLKPEDTAVYYCAARTSYDGTYDYIDDYSYWGQGTQVTVSS	107%
9) 04F09 (VHH, Class 2 Nanobody (anti-IL-17A and IL-17A/F); not shown: c-myc, His6 tag) VHH: EVQLVESGGGLVQPGGSLRLSCAASGRTFSTHAMGWFRQAPGKERDFVAAIRWSDGSSFYADSVKGRFTISRDNAKNAVYLQSNSLKSEDTAVYVCYADVEGPTALHKYWGRGTQVTVSS	68.5%
10) 18B05 (VHH, Class 4 Nanobody (cross-reactive: anti-IL-17A, IL-17F and IL-17A/F); not shown: c-myc, His6 tag) VHH: EVQLVKSGGGLVQPGGSLRLSCAASGGTFSLFAMGWFREAPGKEREFVAAIRWSDGSSYYADSVKGRFTISRDNAKNAVHLQSNSLKSEDTAVYYCYADVQGGLHRYWGQGTQVTVSS	118%
11) 13B03 (VHH, Class 4 Nanobody (cross-reactive: anti-IL-17A, IL-17F and IL-17A/F); also called IL17MS13B03; not shown: c-myc, His6 tag) VHH: EVQLVESGGGSVQAGDSLRLSCAASGRANSINWFGWFRQTPGKEREFVAGIRWSDAYTEYANSVKGRFTISRDNAKNTVDLQMDSLKPEDTAVYYCVLDLSTVRYWGQGTQVTVSS	112%
12) 13E02 (VHH, Class 4 Nanobody (cross-reactive: anti-IL-17A, IL-17F and IL-17A/F); also called IL17MS13E02; not shown: c-myc, His6 tag) VHH: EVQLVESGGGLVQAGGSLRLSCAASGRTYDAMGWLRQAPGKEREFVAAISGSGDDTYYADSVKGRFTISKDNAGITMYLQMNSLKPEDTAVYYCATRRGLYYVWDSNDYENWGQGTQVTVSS	108%
